Test system: 556581-035-R-J1-PDC spheroids with HUVEC/MSC, viability;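 further: spheroids exposed to compounds for 7 days before readout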
Experiment: Anticancer human tumor 556581-035-R-J1-PDC patient-derived ovarian carcinoma cell line growth inhibition [IpAb]
Conditions: second compound 0.316 µM; first compound 0.316 µM; stronger effect = lower value
Method: Combinatorial screen of targeted agents with ipatasertib and abemaciclib in multi-cell type tumor spheroids […] Compounds. […] If the clinical Cmax for an agent had not been determined, the highest concentration tested was 10 microM. NCI60 Cell Culture. […] The optimal seeding densities for each of the cell lines at each time point assessed were determined prior to performing the concentration response studies. […]
# key: entry, value: viability, T/C
PROPERTY_NAME: viability, T/C

INSERT INTO measurements (molecule, test_system, result) VALUES
  ('CCCS(=O)(=O)Nc1ccc(F)c(C(=O)c2c[nH]c3ncc(-c4ccc(Cl)cc4)cc23)c1F + CC(C)NCC(C(=O)N1CCN(c2ncnc3c2C(C)CC3O)CC1)c1ccc(Cl)cc1', '556581-035-R-J1-PDC spheroids with HUVEC/MSC, viability', '71.8%'),
  ('Cc1nc(NC(=O)N2CCCC2C(N)=O)sc1-c1ccnc(C(C)(C)C(F)(F)F)c1 (stereo not drawn) + CCN1CCN(Cc2ccc(Nc3ncc(F)c(-c4cc(F)c5nc(C)n(C(C)C)c5c4)n3)nc2)CC1', '556581-035-R-J1-PDC spheroids with HUVEC/MSC, viability', '40.8%'),
  ('Cc1nc(NC(=O)N2CCCC2C(N)=O)sc1-c1ccnc(C(C)(C)C(F)(F)F)c1 (stereo not drawn) + CC(C)NCC(C(=O)N1CCN(c2ncnc3c2C(C)CC3O)CC1)c1ccc(Cl)cc1', '556581-035-R-J1-PDC spheroids with HUVEC/MSC, viability', '40.3%');
